- assay.notes: Antiproliferative activity against human L-132 cells assessed as growth inhibition after 48 hrs by MTS-PMS assay
- Format: cell-based, L132
- protocol.conditions: Homo sapiens, L132, 48 h; read-out: IC50
pIC50: −log10 of the molar value.
Catalogue of compounds with associated pIC50
readout.kind: pIC50

• C=C1CC[C@@H]2[C@]3(C)COC(C)(C)O[C@@H]3CC[C@@]2(C)[C@@H]1C/C=C1/C(=O)OC[C@H]1OC(=O)CCC(=O)O = 4.66
• C=C1CC[C@@H]2[C@]3(C)COC(C)(C)O[C@@H]3CC[C@@]2(C)[C@@H]1C/C=C1/C(=O)OC[C@H]1OC(=O)c1ccccc1C(=O)O = 4.72
• C=C1CC[C@@H]2[C@]3(C)COC(C)(C)O[C@@H]3CC[C@@]2(C)[C@@H]1C/C=C1/C(=O)OC[C@H]1OC(=O)CCCC(=O)O = 4.82
• C=C1CC[C@@H]2[C@]3(C)COC(C)(C)O[C@@H]3CC[C@@]2(C)[C@@H]1C/C=C1/C(=O)OC[C@H]1OC(=O)/C=C\C(=O)O = 4.51
• C=C1CC[C@@H]2[C@](C)(CO)[C@H](O)CC[C@@]2(C)[C@@H]1C/C=C1/C(=O)OC[C@H]1O [ANDROGRAPHOLIDE] = 4.27
• C=C1CC[C@@H]2[C@](C)(CO)[C@H](O)CC[C@@]2(C)[C@@H]1C/C=C1/C(=O)OC[C@H]1OC(=O)/C=C\C(=O)O = 4.89

----------
- Tested on: U-937
- assay.notes: Antiproliferative activity against human U937 cells assessed as growth inhibition after 48 hrs by MTS-PMS assay
- Type: functional, cell-based
- protocol.conditions: Homo sapiens, U-937, 48 h; read-out: IC50
pIC50: −log10 of the molar value.
readout.kind: pIC50

• C=C1CC[C@@H]2[C@]3(C)COC(C)(C)O[C@@H]3CC[C@@]2(C)[C@@H]1C/C=C1/C(=O)OC[C@H]1OC(=O)CCCC(=O)O = 4.81
• C=C1CC[C@@H]2[C@]3(C)COC(C)(C)O[C@@H]3CC[C@@]2(C)[C@@H]1C/C=C1/C(=O)OC[C@H]1OC(=O)CCC(=O)O = 4.71
• C=C1CC[C@@H]2[C@]3(C)COC(C)(C)O[C@@H]3CC[C@@]2(C)[C@@H]1C/C=C1/C(=O)OC[C@H]1OC(=O)c1ccccc1C(=O)O = 4.84
• C=C1CC[C@@H]2[C@](C)(CO)[C@H](O)CC[C@@]2(C)[C@@H]1C/C=C1/C(=O)OC[C@H]1OC(=O)c1ccccc1C(=O)O = 5.20
• C=C1CC[C@@H]2[C@](C)(CO)[C@H](O)CC[C@@]2(C)[C@@H]1C/C=C1/C(=O)OC[C@H]1OC(=O)/C=C\C(=O)O = 5.01
• C=C1CC[C@@H]2[C@](C)(CO)[C@H](O)CC[C@@]2(C)[C@@H]1C/C=C1/C(=O)OC[C@H]1OC(=O)CCCC(=O)O = 5.01
• C=C1CC[C@@H]2[C@](C)(CO)[C@H](O)CC[C@@]2(C)[C@@H]1C/C=C1/C(=O)OC[C@H]1OC(=O)CCC(=O)O = 5.26
• C=C1CC[C@@H]2[C@](C)(CO)[C@H](O)CC[C@@]2(C)[C@@H]1C/C=C1/C(=O)OC[C@H]1O [ANDROGRAPHOLIDE] = 4.89

FYI, the data here is from ChEMBL document CHEMBL1287702.
